- assayed system: human p38 kinase alpha (Homo sapiens, UniProt Q16539)
- Construct: GST (N, cleaved yes); made in house; host or cells: E. coli DH10B
- Sequence (Q16539 whole entry): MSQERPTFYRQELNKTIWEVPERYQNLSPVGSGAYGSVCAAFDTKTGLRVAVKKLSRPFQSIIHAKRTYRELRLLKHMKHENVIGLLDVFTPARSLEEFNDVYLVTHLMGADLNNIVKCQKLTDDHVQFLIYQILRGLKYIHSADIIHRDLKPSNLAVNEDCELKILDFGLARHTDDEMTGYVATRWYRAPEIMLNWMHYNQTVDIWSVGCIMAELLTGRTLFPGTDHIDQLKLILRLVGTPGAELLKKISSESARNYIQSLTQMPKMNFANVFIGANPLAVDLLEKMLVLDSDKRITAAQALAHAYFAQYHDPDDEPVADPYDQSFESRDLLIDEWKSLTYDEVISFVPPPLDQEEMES
- run description: p38 kinase in vitro assay, phosphorylation of biotinylated PHAS-I with 32P-ATP
- Format: biochemical
- applied conditions: in vitro P38-alpha kinase; read-out: P38 alpha kinase IC50
pIC50: −log10 of the molar value.
experimental endpoint: pIC50

Solved entries:
compound: CN(C)c1ccc(CNC(=O)NCCCc2[nH]nc(-c3ccc(F)cc3)c2-c2ccncc2)cc1 [Example B-1301]
pIC50: 6.92

compound: CCc1ccc(S(=O)(=O)NCCCc2[nH]nc(-c3ccc(F)cc3)c2-c2ccncc2)cc1 [Example B-1265]
pIC50: 6.37

compound: O=C(NCCCc1[nH]nc(-c2ccc(F)cc2)c1-c1ccncc1)c1cc(F)ccc1F [Example B-1349]
pIC50: 7.43

compound: CCCOC(=O)N1CCC(c2[nH]nc(-c3ccc(F)cc3)c2-c2ccncc2)CC1 [Example B-1423]
pIC50: 5.80

compound: O=S(=O)(NCCCc1[nH]nc(-c2ccc(F)cc2)c1-c1ccncc1)c1cc(Cl)cc(Cl)c1O [Example B-1241]
pIC50: 7.40

1 = O=C(NCCCc1[nH]nc(-c2ccc(F)cc2)c1-c1ccncc1)c1ccc(C(F)(F)F)cc1F [Example B-1337]
2 = Cc1cccc(Cl)c1S(=O)(=O)NCCCc1[nH]nc(-c2ccc(F)cc2)c1-c1ccncc1 [Example B-1272]
## Task Name the one with the greater pIC50 value, either 1 or 2 as given. Your answer should be the label attached to the chosen record.
## Result 2
(2: 7.85, 1: 6.40)

* * *

- assayed system: human p38 kinase alpha (Homo sapiens)
- Construct: GST (N, cleaved yes); made in house; host or cells: E. coli DH10B
- run description: p38 kinase in vitro assay, phosphorylation of biotinylated PHAS-I with 32P-ATP
- Type: biochemical
- applied conditions: in vitro P38-alpha kinase; read-out: P38 alpha kinase IC50
pIC50: −log10 of the molar value.
experimental endpoint: pIC50

Solved entries:
record smiles: Cc1c(-c2ccncc2)c(-c2ccc(F)cc2)nn1CC(=O)NCCN1CCOCC1
pIC50: 5.34
--
record smiles: Cc1c(-c2ccncc2)c(-c2ccc(F)cc2)nn1CC(=O)NCc1ccc(N(C)C)cc1
pIC50: 5.67
--
record smiles: O=C(NCCCc1[nH]nc(-c2ccc(F)cc2)c1-c1ccncc1)c1cccc(Cl)c1Cl
pIC50: 6.35
--
record smiles: Cc1ccc(C(=O)N2CCC(c3[nH]nc(-c4ccc(F)cc4)c3-c3ccncc3)CC2)cc1
pIC50: 7.22
--
record smiles: Cc1c(-c2ccncc2)c(-c2ccc(F)cc2)nn1CC(=O)NCCCN1CCCC1=O
pIC50: 6.40

I = O=C(c1ccc(Cl)c(Cl)c1)N1CCC(c2[nH]nc(-c3ccc(F)cc3)c2-c2ccncc2)CC1
II = O=S(=O)(c1cc(Cl)ccc1Cl)N1CCC(c2[nH]nc(-c3ccc(F)cc3)c2-c2ccncc2)CC1
## Task Between I and II , which one shows the smaller pIC50 number? Your answer should be the label attached to the chosen record.
## Result II
(II: 5.68, I: 6.00)

* * *

- assayed system: human p38 kinase alpha (Homo sapiens, UniProt Q16539)
- Construct: GST (N, cleaved yes); made in house; host or cells: E. coli DH10B
- run description: p38 kinase in vitro assay, phosphorylation of biotinylated PHAS-I with 32P-ATP
- Type: biochemical
- applied conditions: in vitro P38-alpha kinase inhibition; read-out: P38 alpha kinase IC50
experimental endpoint: IC50 (nM)

compound: CC(Oc1ccccc1)C(=O)NC(Cc1ccccc1)c1[nH]nc(-c2ccc(F)cc2)c1-c1ccncc1 (stereo not shown)
IC50 / nM: 6250

compound: CC(NC(=O)c1cccc(C(F)(F)F)c1F)c1[nH]nc(-c2ccc(F)cc2)c1-c1ccncc1 (stereo not shown)
IC50 / nM: 10100

compound: CC(=O)OCC(=O)NC(Cc1ccccc1)c1[nH]nc(-c2ccc(F)cc2)c1-c1ccncc1 (stereo not shown) [Example B-0797]
IC50 / nM: 1040

1 = CCCNC(=O)NC(Cc1ccccc1)c1[nH]nc(-c2ccc(F)cc2)c1-c1ccncc1 (stereo not shown) [Example B-0735]
2 = O=C(NC(Cc1ccccc1)c1[nH]nc(-c2ccc(F)cc2)c1-c1ccncc1)c1ccccn1 (stereo not shown)
3 = CC(C)C(=O)NC(C)c1[nH]nc(-c2ccc(F)cc2)c1-c1ccncc1 (stereo not shown)
4 = CNC(=O)CCC(NC(=O)c1ccc(C)cc1)c1[nH]nc(-c2ccc(F)cc2)c1-c1ccncc1 (stereo not shown)
## Task Arrange the 4 entries by IC50 so the values rise. Rank the items, then write their labels in that order.
## Result 3, 1, 2, 4
(3: 450 nM, 1: 1000 nM, 2: 2390 nM, 4: 6920 nM)
